Property: growth; scope: individual molecules
System: MDA-MB-231 breast
Assay: NCI-60 one-dose screen, 48 h (100 = growth as untreated, 0 = no growth, -100 = all killed)
Details: 10 µM unless noted
The panel holds about 83,000 compounds, 20% with a hit somewhere; the sample as a whole holds those more often. Activity calls are given as the source filed them. Rule for the calls: active = growth percent below 10; inactive = the rest.

{"columns": ["MOLECULE", "growth"],
 "data": [
  ["Clc1ccc(-c2nc3c4c(-c5ccccc5)c(-c5ccccc5)n(Cc5ccccc5)c4ncn3n2)cc1", "0.484% (active)"],
  ["COc1ccc(/C=C/C(=O)c2ccc(OC)c(S(N)(=O)=O)c2)c(C(F)(F)F)c1", "5.46% (active)"],
  ["C/C(=N\\Nc1ccc(S(N)(=O)=O)cc1)c1cnn(-c2cc(=O)[nH]c3ccc(Br)cc23)c1C", "31.4% (inactive)"],
  ["O=C1Nc2cc(-c3ccc(NS(=O)(=O)c4ccc(C(F)(F)F)cc4)cc3)ccc2/C1=C/c1ccc[nH]1", "66.7% (inactive)"],
  ["CN(C)C(=O)c1cc(-c2ccc3ncnc(N4CCc5cc(F)c(Cl)cc54)c3c2)cnc1N", "-49.2% (active)"],
  ["C/C(=N\\Nc1ccc(C(=O)O)cc1)c1cnn(-c2cc(=O)[nH]c3ccc(C)cc23)c1C", "91.1% (inactive)"],
  ["COc1ccc(-c2cc(-c3cc(OC)c(OC)c(OC)c3)[nH]c(=O)c2C#N)cc1", "1.65% (active)"],
  ["CC1=C(C(=O)Nc2ccccc2)C(c2ccc3ccccc3c2)n2c(nc3ccccc32)N1 (configuration not stated)", "5.61% (active)"],
  ["COc1cc2cc(C(=O)N3C[C@@H](CCl)c4c3cc(OC(=O)N(C)CCSSCCN3CCOCC3)c3ccccc43)[nH]c2c(OC)c1OC", "-20.2% (active)"],
  ["COc1cc(CNC(=O)C[C@H](C)CCC=C(C)C)ccc1OCc1cn(-c2ccc(Br)cc2)nn1", "80.6% (inactive)"],
  ["CC[C@@]12CC(C(=O)OC)=C3Nc4cc5c(cc4[C@@]34CCN(C[C@H]3O[C@H]31)[C@@H]24)[C@@H]1[C@H](O5)[C@@H](O)[C@@]2(CC)CC(C(=O)OC)=C3Nc4cc(O)ccc4[C@@]34CCN1[C@@H]24", "-70.4% (active)"],
  ["CC[C@]12C=CCN3CC[C@@]4(c5ccc(OC)cc5N(C)[C@H]4[C@@](O)(C(=O)OC)[C@@H]1OC(=O)CCCC[P+](c1ccc(F)cc1)(c1ccc(F)cc1)c1ccc(F)cc1)[C@@H]32", "2.85% (active)"],
  ["COc1ccc(NC(=O)Nc2nc3ccc([N+](=O)[O-])cc3s2)cc1", "46.1% (inactive)"],
  ["CC1=C(C(=O)OCc2ccccc2)C(c2ccc(N(C)C)cc2)n2c(nc3ccccc32)N1 (configuration not stated)", "91.6% (inactive)"],
  ["O=C1Nc2ccc(F)cc2/C1=C/C(=O)c1cc2ccccc2oc1=O", "91.8% (inactive)"],
  ["COc1ccc(N=Nc2c(N)nn3c(-c4ccc(OC)c(OC)c4)ccnc23)cc1", "81.1% (inactive)"],
  ["Cc1ccc(Nc2nnc(-c3c[nH]c4ccccc34)o2)c(C)c1", "-1.28% (active)"]
]}

====

Test system: HCT-116 colon
Experiment: NCI-60 one-dose screen, 48 h (100 = growth as untreated, 0 = no growth, -100 = all killed)
Conditions: 10 µM unless noted
The panel holds about 83,000 compounds, 20% with a hit somewhere; the sample as a whole holds those more often.
Catalogue of growth values

{"columns": ["MOLECULE", "TARGET OR SYSTEM", "growth (%)"],
 "data": [
  ["CCOC(=O)/C(F)=C/C1CC1CCc1ccc(OCC)cc1 (centres undefined)", "HCT-116 colon", 93.7],
  ["C/C(=N/O)c1ccc(NC(=O)CSc2nnc(-c3ccc4nc(-c5ccc(Cl)cc5)[nH]c4c3)o2)cc1", "HCT-116 colon", 69],
  ["CC(=O)Nc1ccc(S(=O)(=O)Nc2ccc(-c3ccc4c(c3)NC(=O)/C4=C\\c3ccc[nH]3)cc2)cc1", "HCT-116 colon", 87.1],
  ["O=Cc1cncc(-c2ccc3ncnc(N4CCc5cc(F)c(Cl)cc54)c3c2)c1", "HCT-116 colon", 33.7]
]}

====

System: NCI/ADR-RES ovarian
Test: NCI-60 one-dose screen, 48 h
Conditions: 10 µM unless noted
About 83,000 compounds went through this panel and 20% of them were active in at least one assay; those are over-represented in the sample as a whole. Calls of active or inactive are those of the source. Rule for the calls: active = growth percent below 10; inactive = the rest.
Outcomes: active, inactive

{"columns": ["COMPOUND", "CLASS NAME"],
 "data": [
  ["COc1ccc(C(=O)c2cc(C(C)=O)c3c(C)cc(C)cn23)cc1", "inactive"],
  ["Cc1ccc2c(c1)/C(=C/C(=O)c1cc3ccccc3oc1=O)C(=O)N2", "inactive"],
  ["O=C(NC(=S)N1CCN(c2ncnc3c2cnn3-c2ccccc2)CC1)c1ccc(Br)cc1", "inactive"],
  ["CCCSc1nnc(-c2c(C)nc3sccn23)o1", "inactive"],
  ["S=C(Nc1ccc(OCc2nc3ccc(Cl)cc3[nH]2)cc1)NC1CCCCC1", "active"],
  ["CN1CCc2c(sc3ncnc(N/N=C/c4cccc(Cl)c4Cl)c23)C1", "inactive"],
  ["COc1ccc2ccccc2c1/C=C1\\SC(=Nc2ccc(O)cc2)NC1=O", "active"],
  ["Cc1ccc(O)cc1Nc1nc(SCCN2CCOCC2)nc2c1cnn2CC(Cl)c1ccc(Br)cc1 (centres undefined)", "active"],
  ["CCCCN1C(=O)/C(=C\\C(=O)c2cc3ccccc3oc2=O)c2ccccc21", "inactive"],
  ["N/C(=N\\c1nc2ccc([N+](=O)[O-])cc2s1)NC(=O)Nc1ccccc1Cl", "inactive"],
  ["Cc1[nH]nc2ccc3nc(-c4cn[nH]c4C(F)(F)F)c4c(c3c12)CCCC4", "inactive"],
  ["Cc1ccc(C(=O)Nc2cc(-n3cnc(F)c3)cc(C(F)(F)F)c2)cc1C#Cc1cnc2cccnn12", "inactive"],
  ["CN(C)c1ccc(/C=C/c2n(Cc3ccc4ccccc4c3)c3ccccc3[n+]2Cc2ccc3ccccc3c2)cc1", "active"],
  ["CCCCCCCCc1ccc(C(=O)Nc2ccc(C)c(OP(=O)(O)O)c2)cc1", "inactive"],
  ["O=C1c2cccc3c(N4CCN(c5ccccc5)CC4)ccc(c23)C(=O)N1c1cccc(-c2nn(-c3ccccc3)cc2-c2nc3ccccc3s2)c1", "inactive"],
  ["CC(C)(C)c1cc(-c2cc(-c3ccccc3)[nH]c(=O)c2C#N)cc(C(C)(C)C)c1", "inactive"],
  ["Cc1ccc(C(=O)Nc2cc(-n3ccnc3C)cc(C(F)(F)F)c2)cc1C#Cc1cnc2cccnn12", "active"],
  ["Cc1ccc(C2CC(c3ccc(S(=O)(=O)NCCNc4nc(N(C)C)nc(N5CCOCC5)n4)cc3)=Nc3c(N)nc(N)nc3N2)cc1 (centres undefined)", "inactive"],
  ["COc1nc(N)ncc1-c1ccc2ncnc(N3CCc4cc(F)c(Cl)cc43)c2c1", "inactive"]
]}

====

Tested on: UACC-257 melanoma
Experiment: NCI-60 one-dose screen, 48 h (100 = growth as untreated, 0 = no growth, -100 = all killed)
Conditions: 10 µM unless noted
The panel holds about 83,000 compounds, 20% with a hit somewhere; the sample as a whole holds those more often.
MEASURED ENDPOINT: growth (%)

{"columns": ["STRUCTURE SMILES", "MEASURED ENDPOINT", "RECORDED RESULT"],
 "data": [
  ["COc1ccc2oc(=O)c(-c3csc(N/N=C(\\C)c4cc(OC)c(OC)c(OC)c4)n3)cc2c1", "growth", 106],
  ["O=CNc1ccc(-n2cnc3cc(-c4ccc(O)cc4)ccc32)cc1", "growth", 98.8],
  ["COc1ccc(-n2c(NC(=O)N3CCN(C)CC3)c(C#N)c3ccccc32)cc1", "growth", 60.3],
  ["CC(=O)C[n+]1cccc2c3ccccc3ccc21", "growth", 48.8],
  ["c1ccc(CSc2nnc(-c3ccc4nc(-c5ccccc5)[nH]c4c3)o2)cc1", "growth", 57.6]
]}

====

System: A498 renal
Assay: NCI-60 one-dose screen, 48 h (100 = growth as untreated, 0 = no growth, -100 = all killed)
Conditions: 10 µM unless noted
Procedure: Growth inhibition of the A498 human tumor cell line is measured as a screen for anti-cancer activity. Cells are grown in 96 well plates and exposed to the test compound for 48 hours. Compounds are tested at a single concentration, which is 10^-5 M for most compounds. The reported endpoint is percent growth (GI% or GIPRCNT), where numbers from 0 - 100% represent growth inhibition, and numbers from -100% - 0 represent cell death. For example, a value of 40 represents 60% growth inhibition. […]
Compounds without any hit were thinned out: in the full panel of roughly 83,000, 20% have a hit.
Lab note: compare growth with 80%, writing met if less and not met if equal or more.

{"columns": ["COMPOUND", "CLASS NAME"],
 "data": [
  ["Clc1ccc(-c2nc3c4c(-c5ccccc5)c(-c5ccccc5)n(Cc5ccccc5)c4ncn3n2)cc1", "met"],
  ["CCCCNc1ccc2c3c(cccc13)C(=O)N(c1cccc(-c3nn(-c4ccccc4)cc3-c3nc4ccccc4s3)c1)C2=O", "not met"],
  ["O=C1Nc2cc(-c3ccc(NS(=O)(=O)c4ccc(-c5ccccc5)cc4)cc3)ccc2/C1=C/c1ccc[nH]1", "met"],
  ["O=C(Nc1ccc(Cl)c(C(F)(F)F)c1)N1CCN(c2cc(-c3cn(-c4ccccc4)nc3-c3cccc(O)c3)ccn2)CC1", "met"],
  ["Cc1cnc2ccc(Oc3ccccc3-c3ccccc3)nn12", "not met"],
  ["COc1ccc(-c2nc3ccccc3n2CC(=O)N=Nc2c(O)[nH]c3ccc(OC)cc23)cc1", "not met"],
  ["O=Cc1cncc(-c2ccc3ncnc(N4CCc5cc(F)c(Cl)cc54)c3c2)c1", "met"],
  ["CCOC(=O)/C(F)=C/C1CC1C(c1ccccc1)c1ccccc1 (centres undefined)", "not met"],
  ["CCN(C(=O)CN1C(=O)/C(=C/c2ccco2)SC1=S)C1CCS(=O)(=O)C1 (centres undefined)", "not met"]
]}
